TEST_TARGET: fusion protein PRY
Sequence (chain, as listed by the source): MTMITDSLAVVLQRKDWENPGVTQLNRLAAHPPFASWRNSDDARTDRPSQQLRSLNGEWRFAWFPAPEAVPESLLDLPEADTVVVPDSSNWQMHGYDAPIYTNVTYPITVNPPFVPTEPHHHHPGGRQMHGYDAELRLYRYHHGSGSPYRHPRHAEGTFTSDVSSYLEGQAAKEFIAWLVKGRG
QUANTITY_KIND: relative cleavage efficiency

Illustrative cases are given below, each with its answer.
| PROTEIN | REPORTED |
| --- | --- |
| OmpT protease variant OmpT D97L (protein) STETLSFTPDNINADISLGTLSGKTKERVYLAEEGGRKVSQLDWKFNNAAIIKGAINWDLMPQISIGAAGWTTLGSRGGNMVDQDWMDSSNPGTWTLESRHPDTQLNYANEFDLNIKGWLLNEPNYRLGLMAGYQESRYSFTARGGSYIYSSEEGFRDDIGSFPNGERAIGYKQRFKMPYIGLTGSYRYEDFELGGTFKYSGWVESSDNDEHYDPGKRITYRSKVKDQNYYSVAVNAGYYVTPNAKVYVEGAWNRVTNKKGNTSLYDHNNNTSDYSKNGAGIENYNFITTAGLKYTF | 3.2% |
| OmpT protease variant OmpT D97H (protein) STETLSFTPDNINADISLGTLSGKTKERVYLAEEGGRKVSQLDWKFNNAAIIKGAINWDLMPQISIGAAGWTTLGSRGGNMVDQDWMDSSNPGTWTHESRHPDTQLNYANEFDLNIKGWLLNEPNYRLGLMAGYQESRYSFTARGGSYIYSSEEGFRDDIGSFPNGERAIGYKQRFKMPYIGLTGSYRYEDFELGGTFKYSGWVESSDNDEHYDPGKRITYRSKVKDQNYYSVAVNAGYYVTPNAKVYVEGAWNRVTNKKGNTSLYDHNNNTSDYSKNGAGIENYNFITTAGLKYTF | < 3% |

So, OmpT protease variant OmpT D97F (protein) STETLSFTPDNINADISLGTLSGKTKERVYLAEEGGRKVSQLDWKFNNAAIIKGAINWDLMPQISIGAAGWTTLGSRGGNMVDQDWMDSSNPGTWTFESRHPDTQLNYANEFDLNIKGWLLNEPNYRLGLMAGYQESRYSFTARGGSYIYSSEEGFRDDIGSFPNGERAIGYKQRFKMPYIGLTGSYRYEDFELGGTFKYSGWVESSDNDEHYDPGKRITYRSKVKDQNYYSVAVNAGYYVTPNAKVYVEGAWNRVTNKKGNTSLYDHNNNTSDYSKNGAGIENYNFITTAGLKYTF ? Its relative cleavage efficiency was < 3%

Reference for the values: patent US20070077617
